# TARGET_SYSTEM: Human acetylcholinesterase (AChE; EC 3.1.1.7) (Homo sapiens)
# Sequence (P22303 32-614): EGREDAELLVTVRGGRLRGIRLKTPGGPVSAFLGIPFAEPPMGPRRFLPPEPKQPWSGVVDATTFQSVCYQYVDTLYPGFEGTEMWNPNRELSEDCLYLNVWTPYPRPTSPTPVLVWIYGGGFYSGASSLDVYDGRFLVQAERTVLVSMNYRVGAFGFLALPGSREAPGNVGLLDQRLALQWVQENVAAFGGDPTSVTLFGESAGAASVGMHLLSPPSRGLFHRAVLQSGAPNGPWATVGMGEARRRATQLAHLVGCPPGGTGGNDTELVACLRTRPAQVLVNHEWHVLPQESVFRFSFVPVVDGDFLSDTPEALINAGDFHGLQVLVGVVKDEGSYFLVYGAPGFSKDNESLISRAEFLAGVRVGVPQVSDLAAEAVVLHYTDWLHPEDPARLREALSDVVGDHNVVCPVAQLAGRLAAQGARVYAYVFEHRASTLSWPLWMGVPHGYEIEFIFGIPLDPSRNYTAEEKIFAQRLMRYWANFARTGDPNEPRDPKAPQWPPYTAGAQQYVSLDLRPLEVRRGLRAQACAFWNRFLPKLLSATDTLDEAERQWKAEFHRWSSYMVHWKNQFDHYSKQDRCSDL
# ASSAY_REMARKS: modified Ellman assay with purified AChE, Lineweaver-Burk kinetics
# Type: biochemical
# CONDITIONS_USED: read-out: Taurine 0.15 mM
pKi: −log10 of the molar value.
METRIC: pKi

{"columns": ["SMILES_REPRESENTATION", "METRIC", "EXPERIMENTAL_RESULT"],
 "data": [
  ["NCCS(=O)(=O)O", "pKi", 3.56]
]}
